Reported inhibition at 100 µM values for a set of molecules
MEASURED ON: UniProt P18405
Sequence (P18405 whole entry): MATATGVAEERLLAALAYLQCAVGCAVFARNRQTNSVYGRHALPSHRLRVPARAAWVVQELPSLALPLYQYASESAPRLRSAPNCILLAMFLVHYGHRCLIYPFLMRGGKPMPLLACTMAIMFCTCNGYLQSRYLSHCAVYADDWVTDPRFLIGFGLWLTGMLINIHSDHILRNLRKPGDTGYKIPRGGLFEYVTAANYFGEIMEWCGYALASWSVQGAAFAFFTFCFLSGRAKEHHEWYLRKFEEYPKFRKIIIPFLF
PROTOCOL NOTES: Whole cell assay of 5α-reductase, type 1 isoenzyme;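 also: intact rat 1A cells engineered to express the human type 1 5α-reductase isozyme serve as the enzyme source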
Assay type: cell-based
Parameters: expressed in transfected cells; host or cells: rat 1A cells infected with pMV7 retrovirus
SETUP CONDITIONS: 100 μM; whole cell assay; Table 7
Hi! Could you send only the number? It should be in %, unit omitted.

O=C1c2ccccc2C(=O)c2c(O)c(O)cc(O)c21 [Purpurin] :: 47
O=c1c(O)c(-c2ccc(O)c(O)c2)oc2cc(O)cc(O)c12 [Quercitin] :: 15
O=c1c(O)c(-c2ccc(O)cc2)oc2cc(O)cc(O)c12 [Kaempferol] :: 60
CCCCCCCCOC(=O)c1cc(O)c(O)c(O)c1 [Octyl Gallate] :: 99
CCCCCCCCCCCCCCCCCC(=O)O [Stearic Acid, Stearic Acid C18:0] :: 10

Ask | Quick one: inhibition at 100 µM for Oc1cc(O)c2c(c1)O[C@H](c1cc(O)c(O)c(O)c1)[C@H](O)C2 [Epigallocatechin] ?
Reply | 15

Ask | And for Oc1cccc(O)c1O [Pyrogallol] ?
Reply | 7

Ask | And for CCCCCCCC/C=C\CCCCCCCC(=O)O [Oleic Acid, Oleic Acid C18:1 CIS 9] ?
Reply | 58

Ask | And for CCCCCC#CCC#CCC#CCC#CCCCC(=O)O [5,8,11,14-Eocpsatetraynoic Acid, 5,8,11,14-eicosatetraynoic acid] ?
Reply | 67

Ask | And for CCCCC/C=C\C/C=C\C/C=C\CCCCC(=O)O [Gamma-Linolenic Acid, Gamma-Linolenic Acid C18:3 CIS 6.9,12] ?
Reply | 91

Ask | And for O=c1c(O)c(-c2ccc(O)c(O)c2)oc2cc(O)ccc12 [Fisetin] ?
Reply | 42

Ask | And for COC(=O)c1cc(O)c(O)c(O)c1 [Methylgallate] ?
Reply | 0
